ASSAY NAME: Inhibition of alpha-glucosidase at 1.25 ug/ml
Please provide measured inhibition for the entries that follow.
The reply should be a number in %, with the unit left off.

Inquiry: Could you tell me which inhibition is on file for COc1ccc([C@H](O)CNC(=O)/C=C/c2ccccc2)cc1 ?
Reply text: 5.3

Inquiry: Return reported inhibition; argument: COc1ccc(/C=C/NC(=O)/C=C/c2ccccc2)cc1 [ANHYDROAEGELINE]
Reply text: 1.7

Inquiry: Reported inhibition, compound COc1ccc([C@H](O)CNC(=O)c2ccccc2)cc1 : ____
Reply text: 1.5

Inquiry: May I ask what inhibition has been recorded for CC(C)=CCOc1ccc(/C=C/NC(=O)/C=C/c2ccccc2)cc1 ?
Reply text: 1.3

Inquiry: What measured inhibition goes with COc1ccc([C@@H](CNC(=O)/C=C/c2ccccc2)O[C@@H]2O[C@H](CO)[C@@H](O)[C@H](O)[C@H]2O)cc1 ?
Reply text: 4.6

* * *

ASSAY NAME: Inhibition of alpha-glucosidase at 2.5 ug/ml
I'd be grateful if you could share measured inhibition for these entries.
The reply should contain only the number, in %.

Inquiry: Entry COc1ccc([C@H](O)CNC(=O)c2ccccc2)cc1 : reported inhibition = ?
Reply text: 7.8

Inquiry: Which inhibition is listed for CC(C)=CCOc1ccc(/C=C/NC(=O)/C=C/c2ccccc2)cc1 ?
Reply text: 8.1

Inquiry: Which value of inhibition has been reported for COc1ccc([C@@H](CNC(=O)/C=C/c2ccccc2)O[C@@H]2O[C@H](CO)[C@@H](O)[C@H](O)[C@H]2O)cc1 in the records?
Reply text: 6.1

Inquiry: Recorded inhibition for COc1ccc(/C=C/NC(=O)/C=C/c2ccccc2)cc1 [ANHYDROAEGELINE] , please?
Reply text: 7.5

Inquiry: Suppose we examine the compound COc1ccc([C@H](O)CNC(=O)/C=C/c2ccccc2)cc1 ; what inhibition value has been reported?
Reply text: 11.2
